Test system: PPARg:RXRa DBDmut IVT, anti-RXR (DBD mutation: RXRa K156A/R161A, NR concentration 270 nM, RXRa partner concentration 90 nM)
Assay: PBM binding z-score (relative to random genomic background probes); higher = stronger binding; sequences stand for … in GC…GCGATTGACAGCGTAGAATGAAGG
Binned PBM binding z-score; ranges: low band = under 0.8, middle band = from 0.8 up to 3, high band = 3 and over

SEQUENCE CODE: TCTTGTAGATCAATAGAGGTTAGGAAAGTGCGCT
GROUP LABEL: middle band
//
SEQUENCE CODE: CCAAACAGGTGAGAAGGTAACTCAGCCTCGATTA
GROUP LABEL: middle band
//
SEQUENCE CODE: AGAGCGAGGGCAATGAGTTGATAGCACGGGTGGC
GROUP LABEL: low band
//
SEQUENCE CODE: ATATGTAGGTTAGCTGGGGTCGTTCAGACTAGGC
GROUP LABEL: high band
//
SEQUENCE CODE: ATACCAATGTGATCGTGAGGTCGTTGATACTAAC
GROUP LABEL: low band
//
SEQUENCE CODE: TTACCAAGCTGAGCTGAGGTCGTTGATCCAACTC
GROUP LABEL: low band
//
SEQUENCE CODE: CTACCAAGGTGAACTAGGTCGTTGATTACTATTC
GROUP LABEL: high band
//
SEQUENCE CODE: CCAGGCAGGTGAGAAGGTAACTCAGCCTCGATTA
GROUP LABEL: low band
//
SEQUENCE CODE: CAGCCTAGGGCAGGGCCAGTATAGGAGGAACGTT
GROUP LABEL: low band
//
SEQUENCE CODE: GATGCTAGGTCAACTGATGGTCAGCTAAAGCTCG
GROUP LABEL: high band
//
SEQUENCE CODE: AGAATGAGGTTATACGTAGATCAGGTAAGAAAGT
GROUP LABEL: high band
//
SEQUENCE CODE: GCTATTAGTTGAAAGAGCAACCGAATGATTCTCG
GROUP LABEL: low band
//
SEQUENCE CODE: AGAACGAGGGCAATGAGATGATAGCACGGGTGGC
GROUP LABEL: high band
//
SEQUENCE CODE: GCTGCTAGGTCAACTGATGGTCAGCTCAAGCTCG
GROUP LABEL: high band
//
SEQUENCE CODE: ACAGACAGGTAATGAAGGTAACTCAGGCTATCAT
GROUP LABEL: low band
//
SEQUENCE CODE: GCTTGTAGATCACGGTTAAGAAAGACTAAGCTAA
GROUP LABEL: middle band
//
SEQUENCE CODE: TCTGCTAGGTCAACGATGGTCAGCTCATCTGCTA
GROUP LABEL: high band
//
SEQUENCE CODE: CGTCCAAGGTCAGCAGGTCAGTTAAAGCGACGTG
GROUP LABEL: high band
//
SEQUENCE CODE: AGAATGAGGTTATTCAGATCAGGGAATTGCGGTC
GROUP LABEL: high band
//
SEQUENCE CODE: AGAATGAGGTGAAGATCAGGGAAACAGAATACAT
GROUP LABEL: high band
//
SEQUENCE CODE: AGAACGAGGACACGCTGAGTTGATAGCAGAGTAG
GROUP LABEL: middle band
//
SEQUENCE CODE: CCTGCTAGGTCAATGGTCAGTTAAAGCAGCTCGC
GROUP LABEL: high band
//
SEQUENCE CODE: TCTGCTAGGGCAACGATGGTCAGCTAATCTGCTA
GROUP LABEL: middle band
//
SEQUENCE CODE: TAGCCTAGGTCATTCAGCGGCCAGTATAGAAAGC
GROUP LABEL: middle band
//
SEQUENCE CODE: GGAACGAGGGCAAGTTGATAACAGAGTTTGATGG
GROUP LABEL: high band
//
SEQUENCE CODE: TCTGCTAGGCCAACGATGGTCAGCTAATCTGCTA
GROUP LABEL: middle band
//
SEQUENCE CODE: AGAACGAGGGCACGCTGAGTTGATAGCGGAGTAG
GROUP LABEL: high band
//
SEQUENCE CODE: TAGCCTAGGTCATGCGGGCTAGTATAGTGTCGGC
GROUP LABEL: middle band
//
SEQUENCE CODE: TCGAGTAGCTTAGGGGCATTCAGAATGGCGTCGA
GROUP LABEL: low band
//
SEQUENCE CODE: CTCCCAAGGTGAACAAGGTCGTTGATTACTATTC
GROUP LABEL: middle band
//
SEQUENCE CODE: GCTATTAGTTTAAAGGGCAACCGAATGATTCTCG
GROUP LABEL: middle band
//
SEQUENCE CODE: ATTGAAAGGTCGAAGGTGAGTATACCCACCCGAA
GROUP LABEL: low band
//
SEQUENCE CODE: CCTATTAGTTGACCATAAAGGCAACCGAAGCTCG
GROUP LABEL: low band
//
SEQUENCE CODE: TCTTGTTGATCAATAGAGGTTAAGAAAGTGCGCT
GROUP LABEL: middle band
//
SEQUENCE CODE: CTACCAAGGTGAAGAAGGTCGTTGATTACTATTC
GROUP LABEL: middle band
//
SEQUENCE CODE: ATATGTAGGTTATCGGGCCATTCAGTTTGCGCAT
GROUP LABEL: high band
//
SEQUENCE CODE: TATACAGGGTAAAAGGCCAGAGTACGAATGTCGA
GROUP LABEL: middle band
//
SEQUENCE CODE: CCGGCTGGGGCAGAAAGGTTACCATACCATCCGG
GROUP LABEL: low band
//
SEQUENCE CODE: CGTCCAAGGCCAATGCTAGGTCAGTGAAAGCATT
GROUP LABEL: low band
//
SEQUENCE CODE: CGACCTAGGTCATTGACAGGACAGTGAATAGTAA
GROUP LABEL: high band
//
SEQUENCE CODE: AGAATGAGGTTATTAAGATCATGGAATTGCGGTC
GROUP LABEL: high band
//
SEQUENCE CODE: TCTTGTAGATCAAAGGTTAAGAATGCCGAAGCCT
GROUP LABEL: middle band
//
SEQUENCE CODE: ATCGAAAGGTCGATGAGGTGAGTATACACCGTTT
GROUP LABEL: low band
//
SEQUENCE CODE: ACTCGGAGGACAAAGTTCAGAGCTACGCCAGTGA
GROUP LABEL: low band
//
SEQUENCE CODE: CCGCGGAGGACAACAGGAGGTCAGAGCTGCCAGA
GROUP LABEL: low band
//
SEQUENCE CODE: CCGCCTGGGGCAGAAAGGTTACCATACCATCCGG
GROUP LABEL: low band
//
SEQUENCE CODE: TCGAGTAGGTAACCAATGGGGCATTCAGCTTTCT
GROUP LABEL: middle band
//
SEQUENCE CODE: CTCGAAAGGTCGGTTGAGTTGAGTATACGGATAA
GROUP LABEL: low band
//
SEQUENCE CODE: CTAACTAGGTCATCCAGGACAGTGAATACATTGA
GROUP LABEL: high band
//
SEQUENCE CODE: GCATATAGGTAATCCAAGGTGAAAGTCCGATTGT
GROUP LABEL: high band

Source: the supplement of paper PMC6555819
